Data origin, for the record: PubChem BioAssay

# protocol-summary: binders from COS7 lysate, DM2A8 probe, primary screen, torsin A project, cell lysate, small-molecule microarray, fluorescence 635/667 (AID 1065)
# experimental-parameters: higher = more signal, COS7 lysate expressing mutant human TOR1A
Label 0 if composite z-score falls below 0.2; label 1 in every other case.

INSERT INTO results (smiles_string, category) VALUES
  ('C=CCN1C(=O)[C@@]2(Cc3ccccc3)N=C(c3ccc(OCCCO)cc3)O[C@H]2c2ccccc21', 1),
  ('COCCOC(=O)N1C(=O)[C@@]2(c3cc(C#CCNC(N)=O)ccc31)[C@H](c1ccc(OCCO)cc1)N1[C@H](c3ccccc3)[C@H](c3ccccc3)OC(=O)[C@H]1[C@@H]2C(=O)Nc1nc2ccccc2s1', 1),
  ('O=C1O[C@@H](c2ccccc2)[C@@H](c2ccccc2)N2[C@@H](c3ccccc3OCCO)[C@]3(C(=O)Nc4ccc(C#CC5=CCCCC5)cc43)[C@@H](C(=O)O)[C@H]12', 1),
  ('CCCC[C@@H]1C[C@H]1[C@@H](NC(=O)c1cccs1)c1ccc(Cl)cc1', 0),
  ('O=C1c2ccccc2[C@](Cc2ccccc2I)(C(=O)NCC(F)(F)F)[C@H](c2ccc(CO)cc2)N1Cc1ccccc1C(F)(F)F', 1),
  ('Cc1ccc(S[C@]2(C(=O)NC3CC3)CC(=O)N(Cc3cc(C(F)(F)F)cc(C(F)(F)F)c3)[C@@H]2c2ccc(CO)cc2)cc1', 0),
  ('CC/C=C/C(=O)N(C[C@@H]1CCCO1)[C@@H]1CC(C(=O)NCCO)=C[C@H](Oc2c(I)cc(CO)cc2OC)[C@H]1O', 1);
